Target: human PAR4 (Homo sapiens)
Sequence (Q96RI0 18-385): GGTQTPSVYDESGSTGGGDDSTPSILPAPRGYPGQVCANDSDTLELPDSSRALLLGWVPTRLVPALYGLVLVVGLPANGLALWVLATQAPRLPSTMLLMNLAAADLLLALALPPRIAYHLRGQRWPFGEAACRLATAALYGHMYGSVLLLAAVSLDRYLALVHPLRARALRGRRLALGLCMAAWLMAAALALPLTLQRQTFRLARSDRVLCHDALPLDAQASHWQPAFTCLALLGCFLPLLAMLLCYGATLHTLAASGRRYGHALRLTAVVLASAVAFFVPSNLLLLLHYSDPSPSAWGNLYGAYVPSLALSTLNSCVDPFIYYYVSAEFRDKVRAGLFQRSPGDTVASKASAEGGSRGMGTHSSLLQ
Test: PAR4 FLIPR assay: antagonism of agonist-peptide-induced calcium mobilization in PAR4-expressing HEK293 cells
Conditions: H-Ala-Phe(4-F)-[…]NH2-induced intracellular calcium mobilization, 11-point curves
Value kind: pIC50
Please treat pIC50 as minus the base-10 logarithm of the molar concentration.

Answered cases to consult:
Compound	Value measured
CCOc1cnc2c(-c3nc4c(C)cc(OCCNS(=O)(=O)c5ccc(F)cc5)cc4s3)cc(C)cc2n1 [Example 30]	8.33
CCOc1cnc2c(-c3cc4ccccc4o3)cc(C)cc2n1 [Example 661]	7.26
COc1cnc2c(-c3nc4cc(F)c(O[C@@H](C)[C@@H](C)OC(=O)Nc5ccc(C#N)nc5)cc4s3)cc(Cl)cc2n1 [Example 829]	9.22
CCOc1cc(C)c2nc(-c3cc(C)cc4nc(COC)cnc34)sc2c1 [Example 306]	9.00

Consider the compound shown here: COc1cnc2c(-c3nc4cc(F)c(O[C@@H](C)[C@@H](C)OC(=O)Nc5ccc(OCCO)nc5)nc4s3)cc(Cl)cc2c1 [Example 779] What is its recorded pIC50?
8.48

Consider the compound shown here: COc1cnc2c(-c3nc4cc(F)c(OC[C@@H](C)OC(=O)Nc5ccccc5)cc4s3)cc(C)cc2n1 [Example 411] What is its recorded pIC50?
8.36

Consider the compound shown here: COc1cnc2c(-c3nc4c(C)cc(OCCNS(=O)(=O)c5ccc(F)cc5)cc4s3)cc(Cl)cc2n1 [Example 199] What is its recorded pIC50?
8.60

----------
Target: human PAR4 (Homo sapiens)
Sequence (Q96RI0 18-385): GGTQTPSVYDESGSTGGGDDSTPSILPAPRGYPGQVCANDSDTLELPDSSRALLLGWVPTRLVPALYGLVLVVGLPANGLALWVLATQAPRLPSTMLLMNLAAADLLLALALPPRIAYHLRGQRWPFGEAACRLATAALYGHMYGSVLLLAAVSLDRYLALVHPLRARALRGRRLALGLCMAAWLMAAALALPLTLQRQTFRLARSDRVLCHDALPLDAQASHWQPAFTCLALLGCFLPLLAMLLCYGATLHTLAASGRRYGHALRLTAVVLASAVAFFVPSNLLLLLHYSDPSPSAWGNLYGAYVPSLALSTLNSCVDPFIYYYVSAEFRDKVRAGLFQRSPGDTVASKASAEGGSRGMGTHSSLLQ
Assay: PAR4 FLIPR assay: antagonism of agonist-peptide-induced calcium mobilization in PAR4-expressing HEK293 cells
Details: H-Ala-Phe(4-F)-[…]NH2-induced intracellular calcium mobilization, 11-point curves
pIC50: −log10 of the molar value.
Binary call on pIC50: yes (1) from 8 upward, no (0) beneath that.

Compound	Answer label
COc1cnc2c(-c3nc4cc(F)c(O[C@@H](C)[C@@H](C)OC(=O)Nc5ccc(CO)nc5)cc4s3)cc(C)cc2n1	yes (1)

Entry COc1cnc2c(-c3nc4c(C)cc(OCCOC(=O)Nc5cncc(C#N)c5)cc4s3)cc(C)cc2n1 : is its pIC50 no less than 8?
yes (1)

Entry COc1cnc2c(-c3nc4cc(F)c(O[C@@H](C)[C@@H](C)OC(=O)Nc5ccnc(C(=O)NCCO)c5)cc4s3)cc(C)cc2n1 : is its pIC50 no less than 8?
yes (1)

Entry COc1cc(C(O)C2(C(F)(F)F)CCC2)c2nc(-c3cc(C)cc4nc(OC)cnc34)sc2c1 (single isomer, unassigned) [Example 664] : is its pIC50 no less than 8?
yes (1)

Entry COc1cnc2c(-c3nc4cc(F)c(O[C@@H](C)[C@@H](C)OC(=O)Nc5cnc(C(C)(C)O)nc5)cc4s3)cc(C)cc2n1 : is its pIC50 no less than 8?
yes (1)

Entry COc1cnc2c(-c3nc4cc(F)c(O[C@@H](C)[C@@H](C)OC(=O)Nc5cnc(OCCO)nc5)cc4s3)cc(C)cc2c1 : is its pIC50 no less than 8?
yes (1)

Entry COc1cc(C(O)c2cccc(C(F)(F)F)c2)c2nc(-c3cc(C)cc4nc(OC)cnc34)sc2c1 (centres unmarked) : is its pIC50 no less than 8?
yes (1)

Entry COc1cnc2c(-c3nc4c(C)cc(OCCNS(=O)(=O)c5ccc(F)cc5)cc4s3)cc(CCO)cc2n1 : is its pIC50 no less than 8?
no (0)
